melting point: recorded values

Consider the following illustrative entries.
Task: Quickly give me recorded melting point for CCCCN(C(=O)C(F)(F)F)C1(C(=O)NC(C)(C)C)C(=O)Nc2ccc([N+](=O)[O-])cc21 (centres unmarked) [Compound 20]
Result: 178 to 180 °C

Task: Quickly give me recorded melting point for CCCCN(C(=O)C(F)(F)F)C1(C(=O)NC(C)(C)C)C(=O)Nc2ccc(I)cc21 (centres unmarked) [Compound 17]
Result: 204 to 205 °C

Task: Quickly give me recorded melting point for COC(=O)/C=C/c1ccc2c(c1)C(=O)C(=O)N2Cc1ccc(I)cc1 [Compound 32]
Result: 228 to 230 °C

Task: Quickly give me recorded melting point for O=C1C(=O)N(Cc2cn(Cc3ccccc3)nn2)c2ccccc21 [Compound 25]
Result: 175 to 177 °C

Next:
Task: Quickly give me recorded melting point for CCCCN(C(=O)CCl)C1(C(=O)NC(C)(C)C)C(=O)Nc2ccc([N+](=O)[O-])cc21 (centres unmarked) [Compound 13]
Result: 179.5 to 179.8 °C

Task: Quickly give me recorded melting point for CCCCN(C(=O)CCl)C1(C(=O)NC(C)(C)C)C(=O)Nc2ccc(I)cc21 (centres unmarked) [Compound 12]
Result: 108.5 to 109.7 °C

Task: Quickly give me recorded melting point for CCCCN(C(=O)C(F)(F)F)C1(C(=O)NC2CCCCC2)C(=O)Nc2ccc(I)cc21 (centres unmarked) [Compound 18]
Result: 218 to 220 °C

Task: Quickly give me recorded melting point for CCCCN(C(=O)CCl)C1(C(=O)NC(C)(C)C)C(=O)Nc2c(Cl)cc(Cl)cc21 (centres unmarked) [Compound 14]
Result: 125 to 126 °C

###

melting point: recorded values

Consider the following illustrative entries.
Task: Quickly give me recorded melting point for CCCCN(C(=O)C(F)(F)F)C1(C(=O)NC(C)(C)C)C(=O)Nc2ccc(Br)cc21 (centres unmarked) [Compound 19]
Result: 198 to 200 °C

Task: Quickly give me recorded melting point for CCCCN(C(=O)CCl)C1(C(=O)NC2CCCCC2)C(=O)Nc2ccc(Br)cc21 (centres unmarked) [Compound 22]
Result: 190.2 to 190.4 °C

Task: Quickly give me recorded melting point for COC(=O)/C=C/c1ccc2c(c1)C(=O)C(=O)N2CCC(=O)OC [Compound 30]
Result: 131 to 132 °C

Task: Quickly give me recorded melting point for COC(=O)/C=C/c1ccc(CN2C(=O)C(=O)c3cc(/C=C/C(=O)OC)ccc32)cc1 [Compound 33]
Result: 188 to 190 °C

Task: Quickly give me recorded melting point for CCCCN(C(=O)C(F)(F)F)C1(C(=O)NC2CCCCC2)C(=O)Nc2ccc(Br)cc21 (centres unmarked) [Compound 15]
Result: 209 to 210 °C

Task: Quickly give me recorded melting point for CCCCN(C(=O)CCl)C1(C(=O)NC(C)(C)C)C(=O)Nc2ccc(Br)cc21 (centres unmarked) [Compound 16]
Result: 180 to 182 °C

Next:
Task: Quickly give me recorded melting point for CCOC(=O)Cn1cc(CN2C(=O)C(=O)c3cc(I)ccc32)nn1 [Compound 27]
Result: 158 to 159 °C

Task: Quickly give me recorded melting point for CCCCN(C(=O)C(F)(F)F)C1(C(=O)NC2CCCCC2)C(=O)Nc2ccc([N+](=O)[O-])cc21 (centres unmarked) [Compound 21]
Result: 200 to 202 °C

###

- Test system: murine 3T3 Balb fibroblast cells
- protocol.summary: CCK8 antiproliferation / cytotoxicity assay in 3T3 Balb fibroblasts
- Type: cell-based
- condition: Mus musculus; CCK-8 assay, murine fibroblast 3T3 Balb cells
pIC50: −log10 of the molar value.
Threshold rule: pIC50 greater than or equal to 5 is Fulfilled; below that, Not fulfilled.

Reference set (3 entries):
Task: Does CCCCN(C(=O)C(F)(F)F)C1(C(=O)NC2CCCCC2)C(=O)Nc2ccc([N+](=O)[O-])cc21 (centres unmarked) have a reported pIC50 of at least 5?
Result: Not fulfilled

Task: Does CCCCN(C(=O)CCl)C1(C(=O)NC2CCCCC2)C(=O)Nc2ccc(Br)cc21 (centres unmarked) have a reported pIC50 of at least 5?
Result: Fulfilled

Task: Does O=C1C(=O)N(Cc2cn(Cc3ccccc3)nn2)c2ccccc21 have a reported pIC50 of at least 5?
Result: Not fulfilled

Next:
Task: Does CCCCN(C(=O)CCl)C1(C(=O)NC(C)(C)C)C(=O)Nc2ccc([N+](=O)[O-])cc21 (centres unmarked) have a reported pIC50 of at least 5?
Result: Fulfilled

Task: Does CCCCN(C(=O)CCl)C1(C(=O)NC(C)(C)C)C(=O)Nc2c(Cl)cc(Cl)cc21 (centres unmarked) have a reported pIC50 of at least 5?
Result: Fulfilled

Task: Does COC(=O)/C=C/c1ccc2c(c1)C(=O)C(=O)N2CCC(=O)OC have a reported pIC50 of at least 5?
Result: Not fulfilled

###

- Tested on: murine 3T3 Balb fibroblast cells
- protocol.summary: CCK8 antiproliferation / cytotoxicity assay in 3T3 Balb fibroblasts
- Format: cell-based
- condition: Mus musculus; CCK-8 assay, murine fibroblast 3T3 Balb cells
pIC50: −log10 of the molar value.
Threshold rule: pIC50 greater than or equal to 5 is 1; below that, -1.

Task: Does CCCCN(C(=O)CCl)C1(C(=O)NC(C)(C)C)C(=O)Nc2ccc(I)cc21 (stereo not shown) have a reported pIC50 of at least 5?
Result: 1

Next:
Task: Does CCCCN(C(=O)CCl)C1(C(=O)NC(C)(C)C)C(=O)Nc2ccc(Br)cc21 (stereo not shown) have a reported pIC50 of at least 5?
Result: 1

Task: Does CCCCN(C(=O)C(F)(F)F)C1(C(=O)NC(C)(C)C)C(=O)Nc2ccc([N+](=O)[O-])cc21 (stereo not shown) have a reported pIC50 of at least 5?
Result: -1

Task: Does COC(=O)/C=C/c1ccc2c(c1)C(=O)C(=O)N2Cc1ccccc1 have a reported pIC50 of at least 5?
Result: 1

Task: Does O=C1C(=O)N(Cc2cn(Cc3ccccc3)nn2)c2ccc(I)cc21 have a reported pIC50 of at least 5?
Result: -1

Task: Does CCCCN(C(=O)C(F)(F)F)C1(C(=O)NC2CCCCC2)C(=O)Nc2ccc(Br)cc21 (stereo not shown) have a reported pIC50 of at least 5?
Result: -1

Task: Does COC(=O)/C=C/c1ccc2c(c1)C(=O)C(=O)N2Cc1ccc(I)cc1 have a reported pIC50 of at least 5?
Result: -1

###

- System: cancerous cervical HeLa cells
- protocol.summary: CCK8 antiproliferation / cytotoxicity assay in HeLa cells
- Assay type: cell-based, human
- condition: CCK-8 assay, human cervical cancer HeLa cells
value.kind: pIC50
The meaning of pIC50 here: minus log10 of the concentration in molar units.

Task: Look up and report pIC50, with cancerous cervical HeLa cells as system, for COC(=O)/C=C/c1ccc2c(c1)C(=O)C(=O)N2Cc1ccccc1
Result: 5.06

###

IC50: recorded values
- System: murine 3T3 Balb fibroblast cells
- protocol.summary: CCK8 antiproliferation / cytotoxicity assay in 3T3 Balb fibroblasts
- Assay type: cell-based
- condition: Mus musculus; CCK-8 assay, murine fibroblast 3T3 Balb cells
Return type: number; implicit unit µM.

Consider the following illustrative entries.
Task: Quickly give me recorded IC50 for COC(=O)/C=C/c1ccc(CN2C(=O)C(=O)c3cc(/C=C/C(=O)OC)ccc32)cc1
Result: 12.6

Task: Quickly give me recorded IC50 for CCCCN(C(=O)C(F)(F)F)C1(C(=O)NC2CCCCC2)C(=O)Nc2ccc(I)cc21 (stereo not drawn)
Result: 8.5

Now for another entry.
Task: Quickly give me recorded IC50 for CCCCN(C(=O)C(F)(F)F)C1(C(=O)NC(C)(C)C)C(=O)Nc2ccc(I)cc21 (stereo not drawn)
Result: 7.2
